The following compounds are shown together with reported IC50 values.
target: CDK9/Cyclin T1 (Homo sapiens, UniProt P50750); experiment: Kinase assay using CDK9/Cyclin T1; settings: read-out: CDK9 (activity range)
Sequence (P50750 whole entry): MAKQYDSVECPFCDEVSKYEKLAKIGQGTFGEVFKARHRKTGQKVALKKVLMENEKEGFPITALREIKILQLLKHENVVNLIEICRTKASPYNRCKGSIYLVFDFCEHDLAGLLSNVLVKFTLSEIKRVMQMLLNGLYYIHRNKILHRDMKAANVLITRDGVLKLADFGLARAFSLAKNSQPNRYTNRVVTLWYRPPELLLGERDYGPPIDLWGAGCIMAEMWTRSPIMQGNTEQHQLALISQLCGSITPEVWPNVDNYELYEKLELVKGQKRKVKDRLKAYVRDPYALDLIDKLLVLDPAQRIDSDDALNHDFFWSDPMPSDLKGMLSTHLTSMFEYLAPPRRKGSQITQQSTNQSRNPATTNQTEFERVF
Sequence (O60563 whole entry partner): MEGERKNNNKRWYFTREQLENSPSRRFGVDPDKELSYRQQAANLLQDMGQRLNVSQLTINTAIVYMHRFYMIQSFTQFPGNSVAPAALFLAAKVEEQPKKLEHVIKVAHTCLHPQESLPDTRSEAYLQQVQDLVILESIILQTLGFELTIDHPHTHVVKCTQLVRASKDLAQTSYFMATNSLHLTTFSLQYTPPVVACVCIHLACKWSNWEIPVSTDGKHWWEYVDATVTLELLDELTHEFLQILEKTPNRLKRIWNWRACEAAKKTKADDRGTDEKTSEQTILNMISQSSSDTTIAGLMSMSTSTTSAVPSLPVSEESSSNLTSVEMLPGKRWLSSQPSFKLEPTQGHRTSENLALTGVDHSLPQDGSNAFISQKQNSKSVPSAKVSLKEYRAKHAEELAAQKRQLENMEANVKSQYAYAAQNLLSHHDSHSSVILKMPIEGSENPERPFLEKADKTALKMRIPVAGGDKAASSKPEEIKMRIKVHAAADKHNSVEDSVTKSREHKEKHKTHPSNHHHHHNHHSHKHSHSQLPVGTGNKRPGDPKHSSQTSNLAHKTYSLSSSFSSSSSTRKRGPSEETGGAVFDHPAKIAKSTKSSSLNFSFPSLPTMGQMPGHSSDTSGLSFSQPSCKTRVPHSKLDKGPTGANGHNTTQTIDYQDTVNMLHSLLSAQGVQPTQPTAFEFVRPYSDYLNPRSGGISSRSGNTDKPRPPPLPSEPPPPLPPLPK

Please review the following examples before continuing.
COMPOUND: COc1ccccc1-c1cc(Nc2ccc(NC(=O)c3n[nH]c4ccccc34)cc2)ncn1
STUDY_SYSTEM: CDK9/Cyclin T1 (Homo sapiens, UniProt P50750)
VALUE_TYPE: IC50
ASSAY_RESULT: 1000 to 10000 nM

COMPOUND: O=C(Nc1ccc(Nc2cc(-c3ccccc3Cl)ncn2)cc1)[C@@H]1CCCCN1
STUDY_SYSTEM: CDK9/Cyclin T1 (Homo sapiens, UniProt P50750)
VALUE_TYPE: IC50
ASSAY_RESULT: 1 to 1000 nM

COMPOUND: Nc1ccc(C(=O)Nc2ccc(Nc3cc(-c4ccncc4)ncn3)cc2)cc1
STUDY_SYSTEM: CDK9/Cyclin T1 (Homo sapiens, UniProt P50750)
VALUE_TYPE: IC50
ASSAY_RESULT: 10000 to 250000 nM

COMPOUND: CCCS(=O)(=O)Nc1ccc(Nc2cc(-c3ccccc3OC)ncn2)cc1
STUDY_SYSTEM: CDK9/Cyclin T1 (Homo sapiens, UniProt P50750)
VALUE_TYPE: IC50
ASSAY_RESULT: 1 to 1000 nM

Consider now this further compound.
Input: # get_value(readout='IC50', item= Nc1cccc(-c2cc(Nc3ccc(C(=O)NC4CCCCC4N)cc3)ncn2)c1 (centres unmarked) )
Output: 1000 to 10000 nM
